Tested on: OVCAR-4 ovarian
assay protocol: NCI-60 one-dose screen, 48 h
conditions used: 10 µM unless noted
The panel holds about 83,000 compounds, 20% with a hit somewhere; the sample as a whole holds those more often. Activity calls are given as the source filed them. The calls were made as follows: active = growth percent below 10; inactive = the rest.
Outcomes you can answer with include only these: y = active, n = inactive

Reference set, count: 2
// query Each molecule tested received a call. Report the one for `Cc1c2c(cc[n+]1Cc1ccccc1)c1ccc(OCC3CCCCC3)cc1n2CC1CCCCC1` .
// result y

// query Returns: the outcome recorded for `COc1cc2nc(-c3ccc(C#N)cc3)[nH]c(=O)c2cc1OC` in this assay.
// result n

Continuing:
// query Recorded test outcome, item `COc1ccc(CNC(=O)COc2ccc(/C=N/Nc3nc4ccccc4s3)cc2)cc1`
// result y

// query Could you check what this test reported for CC(C)C1C2=C(NCCN1C(=O)Cc1ccccc1)C(C)(C)N(Cc1ccccc1)C2=O (centres undefined) ?
// result n

---

Test system: M14 melanoma
assay protocol: NCI-60 one-dose screen, 48 h (100 = growth as untreated, 0 = no growth, -100 = all killed)
conditions used: 10 µM unless noted
Procedure: Growth inhibition of the M14 human tumor cell line is measured as a screen for anti-cancer activity. Cells are grown in 96 well plates and exposed to the test compound for 48 hours. Compounds are tested at a single concentration, which is 10^-5 M for most compounds. The reported endpoint is percent growth (GI% or GIPRCNT), where numbers from 0 - 100% represent growth inhibition, and numbers from -100% - 0 represent cell death. For example, a value of 40 represents 60% growth inhibition. […]
About 83,000 compounds went through this panel and 20% of them were active in at least one assay; those are over-represented in the sample as a whole.
measurement kind: growth (%)
Please respond with the number in % and leave the unit unwritten.

// `Clc1nc(Cl)c2ncn(CCOCCn3cnc4c(Cl)nc(Cl)nc43)c2n1` : growth value = -84.9

---

Test system: PC-3 prostate
assay protocol: NCI-60 one-dose screen, 48 h
conditions used: 10 µM unless noted
This is part of a sample that, as a whole, favours compounds with a hit. Of some 83,000 tested, about 20% had one in any assay. The source made the active and inactive calls. How the source made its calls: active means growth percent below 10; inactive means the rest.
// one of active, inactive, no free text

Here's what some known entries look like.
// query Could you check what this test reported for `Cc1c(C(=O)NO)sc2ncnc(Nc3ccc(NC(=S)Nc4ccccc4)cc3)c12` ?
// result inactive

// query Field: outcome | Entry: `COc1cccc(-c2nc3occn3c2-c2ccnc(NCCCNS(=O)(=O)c3cccc(F)c3)n2)c1`
// result inactive

Okay, next one:
// query Call for entry `CC[C@H](C)[C@@H]1NC(=O)[C@H](Cc2ccc(O)cc2)N(C)C(=O)[C@H](Cc2ccccc2)NC(=O)CN(C)C(=O)[C@@H]2CCCN2C(=O)[C@@H](Cc2ccccc2)N(C)C(=O)[C@H](CC(C)C)NC1=O` :
// result active

---

Tested on: HCT-15 colon
assay protocol: NCI-60 one-dose screen, 48 h (100 = growth as untreated, 0 = no growth, -100 = all killed)
conditions used: 10 µM unless noted
This is part of a sample that, as a whole, favours compounds with a hit. Of some 83,000 tested, about 20% had one in any assay.
Listed below: growth values for each entry.
// note: answer is a bare numeric in %

get_value(item= `Cc1c2c(cc[n+]1Cc1ccccc1)c1ccc(OCc3ccccc3)cc1n2Cc1ccccc1` , readout=growth) returns 39.2

Entry CCN1C(=O)N(CC)C2NC(SC)=NC21 (stereo not drawn) , growth reported as 103

Notebook: OC(c1ccccc1)c1ccccn1 (stereo not drawn) , growth read as 105

growth recorded for this molecule, `FC(F)(F)Oc1cccc(-c2cc(NCCCCCCNc3cc(-c4cccc(OC(F)(F)F)c4)nc4ccc(N5CCCC5)cc34)c3cc(N4CCCC4)ccc3n2)c1` , is -57.5

Reported growth for `COC(=O)Nc1nc2ccc(C(=O)c3cccc(I)c3)cc2[nH]1` was 11.8

Others:
So for `CN1CCN(c2ccc3nc(-c4cc(C(C)(C)C)c(O)c(C(C)(C)C)c4)[nH]c3c2)CC1` , the logged growth turned out to be -35.3

Notebook: `COc1cc(COC(=O)CCCCC[P+](c2ccccc2)(c2ccccc2)c2ccccc2)c(OC)c2c1OCO2` , growth read as 99.3

`CNC(=O)Nc1ccc(-c2nc(N3CCOCC3)nc3c2cnn3C2CCOCC2)cc1` has a reported growth of 8.73

Recorded growth (molecule `COc1ccc(-c2nc(N/N=C/c3c[nH]c4ccccc34)nc(N3CCOCC3)c2C#N)cc1` ): 44.1

Short answer for `Cc1cc(C(=O)Nc2ncnc3nc[nH]c23)no1` : growth was 102

Record `O=C(N/N=C/c1ccc(O)c(O)c1)c1sc2ccccc2c1Cl` . Reported growth: 33.9

Looking up `COc1ccc(C(=O)c2cc(C)c(OC)c(C)c2)c(OC)c1N(C(=O)C(Cl)Cl)C(=O)C(Cl)Cl` , I found its growth recorded as 7.03

Short answer for `COc1ccc(/C=C2\COc3ccc(-c4ccccc4)cc3C2=O)cc1O` : growth was 19.6

---

Test system: SF-539 CNS
assay protocol: NCI-60 one-dose screen, 48 h
conditions used: 10 µM unless noted
Compounds without any hit were thinned out: in the full panel of roughly 83,000, 20% have a hit. Active and inactive are the calls of the source. The calls were made as follows: active = growth percent below 10; inactive = the rest.
Select the correct class. Options are true (1) (active), false (0) (inactive) and nothing else.

Worked cases, answers included:
// query Fill in: this test's call for `Cc1c(C(=O)NO)sc2ncnc(Nc3ccc(NC(=S)Nc4ccccc4)cc3)c12` is ___
// result false (0)

// query Please let me know the test result on file for `O=C(CN1CCOCC1)Nc1ccc2ncnc(Nc3ccc(Oc4cccc(F)c4)c(Cl)c3)c2c1` .
// result false (0)

// query Which result was noted for this compound in the test: `c1cnc2nc3c(cc2c1)oc1ccccc13`
// result false (0)

// query Which outcome was entered for the compound `CCCCOc1ccc(/C=N/Nc2cc(C)nc3ccc(Cl)cc23)cc1` in this test?
// result true (1)

// query // return assay outcome for `Cc1c([N+](=O)[O-])cc(C(C)(C)C)cc1[N+](=O)[O-]`
// result false (0)

// query What did the test return for `CCOC(=O)Oc1c(OC)cc(C(=O)O[C@@H]2C[C@@H]3CN4CCc5c([nH]c6cc(OC)ccc56)[C@H]4C[C@@H]3[C@H](C(=O)OC)[C@H]2OC)cc1OC` ?
// result false (0)

// query Identify the outcome logged in this assay for the compound shown: `COc1ccc(/C=N/NC(=O)c2cccc3cc[nH]c23)cc1O`
// result true (1)

// query Record request — test call for O=c1[nH]c2c(s1)CCCC2CN1CCCCC1 (configuration not stated)
// result false (0)

More entries:
// query Status in this test for `CS(=O)(=O)OCCN(CCOS(C)(=O)=O)c1ccc(/C=N/Nc2ccc([N+](=O)[O-])cc2[N+](=O)[O-])cc1` ?
// result false (0)

// query Fill in: this test's call for COc1ccc(C2=NN(C(C)=O)C(c3cn(Cc4ccc(Cl)cc4)c4ccccc34)C2)cc1 (configuration not stated) is ___
// result false (0)

// query Returns: the outcome recorded for `Cc1nc2sc(C(=O)Nc3cccc(Br)c3)c(N)c2cc1C(=O)c1ccc(C(F)(F)F)cc1` in this assay.
// result false (0)

// query Which outcome was assigned to Clc1ccc(N2N=C(c3cccc(Nc4ccncc4)c3)CC2c2ccccc2)cc1 (configuration not stated) in this test?
// result false (0)

// query Look up the recorded call for `Cc1cc(C(=O)Nc2ncnc3nc[nH]c23)no1` in this test.
// result false (0)

---

Tested on: OVCAR-4 ovarian
assay protocol: NCI-60 one-dose screen, 48 h (100 = growth as untreated, 0 = no growth, -100 = all killed)
conditions used: 10 µM unless noted
The panel holds about 83,000 compounds, 20% with a hit somewhere; the sample as a whole holds those more often.
Reported growth values for a set of compounds
Kindly provide the numeric value in % only, without the unit symbol.

The recorded growth for CCN(CC)CCCC(C)Nc1cc(-c2cccc(OC(F)(F)F)c2)nc2ccc(N3CCCC3)cc12 (stereo not drawn) is 34.8

Item: `Cc1c(C2=CCCCC2)c2ccccn2c1C(=O)c1cccc(S(=O)(=O)N2CCOCC2)c1` | growth: 52.2

The compound `CCOC(=O)c1c(SC)nn(-c2cc(=O)[nH]c3ccc(Br)cc23)c1N` showed growth equal to 86.2

***
For reference, reported growth for `CCCCCCOc1ccc(C(=N)N(CCCC)CCCC)c2ccccc12` stands at -96.4

Briefly, growth measured for `Cc1ccc(-c2c(Br)c(OC(=O)CO[C@@H]3C[C@H](C)CC[C@H]3C(C)C)c(-c3ccc(C)cc3C)c(Br)c2OC(=O)CO[C@H]2C[C@@H](C)CC[C@@H]2C(C)C)c(C)c1` : 106

Consider `Nc1c(Cl)cc([N+](=O)[O-])cc1Br` . Its measured growth is 102

growth recorded for this compound, `COc1cc(CCNc2nc3cc(N)cc(N)c3nc2-c2ccccc2)cc(OC)c1` , is -94.9

growth for `COc1cc2ncnc(Nc3ccc(C(=O)/C=C/c4ccc(C(F)(F)F)cc4F)cc3)c2cc1OC` is 105
